Biological target: ScLsb1
Assay: SPOT peptide array binding signal intensity (averaged, normalized) (arbitrary units (background-subtracted, floor 0; scale differs between SH3 domains)); higher = stronger binding of the SH3 domain to the peptide
Please provide measured SPOT peptide array binding signal intensity for the entries that follow.

Fill in: SPOT peptide array binding signal intensity of LEFRAILFIPKRAPF is ___
2

Fill in: SPOT peptide array binding signal intensity of PLQSKIPMLPSRRTM is ___
287

Fill in: SPOT peptide array binding signal intensity of NILKRRPLKLEAPSK is ___
2.5

Fill in: SPOT peptide array binding signal intensity of MTKTPETSPPKRPMG is ___
6.5

Fill in: SPOT peptide array binding signal intensity of VATSTSPKLPPRGKQ is ___
268

Fill in: SPOT peptide array binding signal intensity of NFFRKKLGIPRKLKR is ___
13.5

Fill in: SPOT peptide array binding signal intensity of VTHRLRISIPGITGR is ___
65

Fill in: SPOT peptide array binding signal intensity of IKKRNKIRLPSGSPE is ___
6.25

Fill in: SPOT peptide array binding signal intensity of VFQFQMPTTPISTKM is ___
46.5

Fill in: SPOT peptide array binding signal intensity of NIKVLLNPKLGKPVK is ___
5.75

Fill in: SPOT peptide array binding signal intensity of NQARKPFLLPATELS is ___
23.5

Fill in: SPOT peptide array binding signal intensity of RPPRPPPKPLHLRTE is ___
90

Fill in: SPOT peptide array binding signal intensity of LKPPIGRPPKFPKSP is ___
1.5

Fill in: SPOT peptide array binding signal intensity of ATNVPVAPPPPPASL is ___
0.25

Fill in: SPOT peptide array binding signal intensity of YHSRRHPLALGFKYV is ___
1.5
